SYSTEM: Amyloid-beta precursor protein (Homo sapiens) (UniProt P05067)
Sequence (P05067 whole entry): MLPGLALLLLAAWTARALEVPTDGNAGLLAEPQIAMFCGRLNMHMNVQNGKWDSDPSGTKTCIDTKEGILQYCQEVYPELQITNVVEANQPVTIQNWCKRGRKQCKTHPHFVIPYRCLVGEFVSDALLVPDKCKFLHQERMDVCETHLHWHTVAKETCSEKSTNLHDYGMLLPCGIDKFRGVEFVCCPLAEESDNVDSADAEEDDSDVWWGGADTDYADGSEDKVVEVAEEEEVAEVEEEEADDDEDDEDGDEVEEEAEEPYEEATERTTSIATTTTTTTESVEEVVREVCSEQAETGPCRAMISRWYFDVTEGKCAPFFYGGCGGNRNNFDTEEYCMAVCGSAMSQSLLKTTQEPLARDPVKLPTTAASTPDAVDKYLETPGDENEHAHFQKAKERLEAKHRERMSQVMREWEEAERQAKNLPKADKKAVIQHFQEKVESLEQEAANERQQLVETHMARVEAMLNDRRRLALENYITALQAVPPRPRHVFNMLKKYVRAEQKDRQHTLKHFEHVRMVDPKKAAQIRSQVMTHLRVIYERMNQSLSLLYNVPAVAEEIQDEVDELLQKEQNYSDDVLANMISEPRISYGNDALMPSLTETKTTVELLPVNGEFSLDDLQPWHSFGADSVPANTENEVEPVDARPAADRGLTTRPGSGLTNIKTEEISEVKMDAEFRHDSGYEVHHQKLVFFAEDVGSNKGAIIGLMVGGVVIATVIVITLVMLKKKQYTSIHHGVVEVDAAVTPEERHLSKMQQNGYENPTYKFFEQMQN
TEST PROTOCOL: Disaggregation of self-induced amyloid beta (1 to 40) (unknown origin) preformed fibrils assessed as aggregation level at 100 uM after 12 days by UV-visible turbidity method
The threshold is inclusive: Activity of exactly 70% counts as Satisfied; values below receive Not satisfied.

Here's what some known entries look like.
Task: Reported Activity at or above 70%? Oc1ccccc1/C=N/CCNc1ccnc2cc(Cl)ccc12
Output: Satisfied

Task: Reported Activity at or above 70%? Oc1ccc(/C=N/CCn2ccc3cccnc32)c(O)c1
Output: Satisfied

Continuing:
Task: Reported Activity at or above 70%? O=C(NCCNc1ccnc2cc(Cl)ccc12)c1cnccn1
Output: Satisfied

Task: Reported Activity at or above 70%? Cl.Nc1ncnc2c1ncn2CCNCC/N=C/c1ccc(O)cc1O
Output: Satisfied

Task: Reported Activity at or above 70%? Oc1ccc(/C=C/c2cc(O)cc(O)c2)cc1
Output: Not satisfied

Task: Reported Activity at or above 70%? Cl.Oc1ccc(/C=N/CCNCCn2cnc3ccccc32)c(O)c1
Output: Not satisfied
